Origin of values: ChEMBL document CHEMBL1201862

Molecular target: Ataxin-2 (Homo sapiens) (UniProt Q99700)
Sequence (Q99700 whole entry): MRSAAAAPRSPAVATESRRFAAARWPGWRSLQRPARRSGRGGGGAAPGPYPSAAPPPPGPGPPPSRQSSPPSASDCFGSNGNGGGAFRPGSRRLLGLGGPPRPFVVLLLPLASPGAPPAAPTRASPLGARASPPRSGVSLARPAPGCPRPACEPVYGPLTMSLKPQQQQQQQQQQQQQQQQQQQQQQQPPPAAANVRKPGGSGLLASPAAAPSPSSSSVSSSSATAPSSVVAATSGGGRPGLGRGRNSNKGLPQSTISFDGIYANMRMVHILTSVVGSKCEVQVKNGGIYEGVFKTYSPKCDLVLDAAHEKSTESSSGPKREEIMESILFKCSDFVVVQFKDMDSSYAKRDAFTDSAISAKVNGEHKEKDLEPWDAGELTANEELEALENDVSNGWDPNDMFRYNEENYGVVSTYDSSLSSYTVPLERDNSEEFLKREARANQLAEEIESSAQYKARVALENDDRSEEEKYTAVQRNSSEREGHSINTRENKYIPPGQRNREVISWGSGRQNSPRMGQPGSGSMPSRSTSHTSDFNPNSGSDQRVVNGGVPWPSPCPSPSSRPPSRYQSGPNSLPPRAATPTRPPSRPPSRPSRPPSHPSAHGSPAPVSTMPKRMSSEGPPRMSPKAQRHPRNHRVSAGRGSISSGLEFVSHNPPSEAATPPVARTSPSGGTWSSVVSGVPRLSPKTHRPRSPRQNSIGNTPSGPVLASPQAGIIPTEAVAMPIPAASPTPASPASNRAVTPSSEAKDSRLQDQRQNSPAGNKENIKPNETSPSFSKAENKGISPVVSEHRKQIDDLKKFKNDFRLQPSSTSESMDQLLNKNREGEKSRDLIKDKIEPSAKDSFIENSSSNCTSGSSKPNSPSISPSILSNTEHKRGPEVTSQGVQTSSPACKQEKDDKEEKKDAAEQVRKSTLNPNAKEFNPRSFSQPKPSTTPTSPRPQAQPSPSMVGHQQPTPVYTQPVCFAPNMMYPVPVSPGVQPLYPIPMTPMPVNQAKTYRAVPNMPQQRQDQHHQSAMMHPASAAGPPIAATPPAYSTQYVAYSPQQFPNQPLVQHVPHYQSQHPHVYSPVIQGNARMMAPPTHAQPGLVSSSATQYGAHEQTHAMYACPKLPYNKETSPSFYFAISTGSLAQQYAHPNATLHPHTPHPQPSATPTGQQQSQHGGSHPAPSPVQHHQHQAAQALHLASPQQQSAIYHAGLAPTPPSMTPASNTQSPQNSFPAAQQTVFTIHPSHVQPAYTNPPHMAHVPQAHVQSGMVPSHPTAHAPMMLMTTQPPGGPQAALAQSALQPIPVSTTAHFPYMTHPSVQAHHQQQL
Test: qHTS for Inhibitors of ATXN expression.
Format: functional
Screen size: about 400,000 compounds; about 2,100 (0.53%) were called active. Not shown: some 14% with an inconclusive outcome. Shown is part of a subset that was picked to be rich in actives.
measuredProperty: Potency

{"compound": "CCCC(=O)NC(N=C(S)Nc1ccc(N=Nc2ccccc2)cc1)C(Cl)(Cl)Cl (centres undefined)", "assayedTarget": "Ataxin-2 (Homo sapiens) (UniProt Q99700)", "Potency": "22.4 µM (active)"}
{"compound": "O=C(c1ccc(S(=O)(=O)N2CCCCC2)cc1)N1CCc2ccccc2C1", "assayedTarget": "Ataxin-2 (Homo sapiens) (UniProt Q99700)", "Potency": "inactive"}
{"compound": "C=CCC[C@@H](Cc1ccc(F)cc1)C(=O)OC[C@@H]1CCCN1C(=O)[C@@H](CC=C)CC(=O)N[C@@H](CO)Cc1ccccc1", "assayedTarget": "Ataxin-2 (Homo sapiens) (UniProt Q99700)", "Potency": "28.2 µM (active)"}
{"compound": "O=C(COc1ccc(Cl)cc1)NNC(=O)CSc1nncs1", "assayedTarget": "Ataxin-2 (Homo sapiens) (UniProt Q99700)", "Potency": "inactive"}
{"compound": "CC(C)(C)c1ccc(OCC(=O)NNC(=O)Nc2ccccc2)cc1", "assayedTarget": "Ataxin-2 (Homo sapiens) (UniProt Q99700)", "Potency": "inactive"}
{"compound": "COc1ccc2sc(N(CCCN(C)C)C(=O)c3ccc(S(=O)(=O)N4CCCc5ccccc54)cc3)nc2c1", "assayedTarget": "Ataxin-2 (Homo sapiens) (UniProt Q99700)", "Potency": "39.8 µM (active)"}

Task: Data request, read-out Potency, for C=CC[C@@H](Cc1ccc(F)cc1)C(=O)OC[C@@H]1CCCN1C(=O)[C@H](CC=C)CC(=O)N[C@H](CO)Cc1ccccc1
Output: 39.8 µM (active)

Task: Data request, read-out Potency, for O=C(Nc1nc2ccc([N+](=O)[O-])cc2s1)c1ccc(S(=O)(=O)N2CCCc3ccccc32)cc1
Output: inactive

Task: Data request, read-out Potency, for COc1ccc(C)c2sc(N(CCCN(C)C)C(=O)c3ccc(S(=O)(=O)N4CCc5ccccc5C4)cc3)nc12
Output: 22.4 µM (active)
